Target: T1, Human C5 (human, UniProt P01031 19-1676)
T1 construct: The natural protein has a beta and an alpha chain; also called complement factor 5; complement component 5
Experiment: SPR, mAb captured by anti-hFc, 37C
value-kind: koff (s⁻¹)
Numbers only here, please. The scale is s⁻¹.

| binder | uom | koff |
| --- | --- | --- |
| H4H12161P (antibody, human IgG4, V domains shown) VH: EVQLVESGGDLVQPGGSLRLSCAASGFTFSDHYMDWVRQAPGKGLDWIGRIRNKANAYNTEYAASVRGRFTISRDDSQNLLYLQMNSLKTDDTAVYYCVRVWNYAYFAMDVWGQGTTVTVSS VL: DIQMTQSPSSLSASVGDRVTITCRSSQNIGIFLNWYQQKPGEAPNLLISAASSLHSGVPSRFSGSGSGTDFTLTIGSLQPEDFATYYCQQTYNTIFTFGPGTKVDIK | s⁻¹ | 0.000115 |
| H4H12164P (antibody, human IgG4, V domains shown) VH: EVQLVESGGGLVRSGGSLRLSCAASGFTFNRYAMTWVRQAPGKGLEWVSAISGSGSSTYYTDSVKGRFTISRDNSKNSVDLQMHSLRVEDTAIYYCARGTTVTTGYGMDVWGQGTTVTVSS VL: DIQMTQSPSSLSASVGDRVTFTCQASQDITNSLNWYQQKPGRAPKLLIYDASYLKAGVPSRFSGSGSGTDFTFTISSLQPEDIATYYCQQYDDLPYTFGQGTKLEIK | s⁻¹ | 0.000128 |
| H4H12166P6 (antibody, human IgG4, V domains shown, human IgG4 Fc with S108P hinge mutation) VH: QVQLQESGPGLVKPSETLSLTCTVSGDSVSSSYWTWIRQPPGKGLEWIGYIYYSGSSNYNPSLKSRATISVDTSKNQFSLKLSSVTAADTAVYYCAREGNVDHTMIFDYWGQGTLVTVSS VL: AIQMTQSPSSLSASVGDRVTITCRASQGIRNDLGWYQQKPGKAPKLLIYAASSLQSGVPSRFAGRGSGTDFTLTISSLQPEDFATYYCLQDFNYPWTFGQGTKVEIK | s⁻¹ | 0.000474 |
| H4H12170P (antibody, human IgG4, V domains shown) VH: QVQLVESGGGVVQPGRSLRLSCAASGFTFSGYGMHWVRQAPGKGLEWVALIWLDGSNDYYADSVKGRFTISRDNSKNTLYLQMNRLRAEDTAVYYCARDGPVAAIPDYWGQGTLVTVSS VL: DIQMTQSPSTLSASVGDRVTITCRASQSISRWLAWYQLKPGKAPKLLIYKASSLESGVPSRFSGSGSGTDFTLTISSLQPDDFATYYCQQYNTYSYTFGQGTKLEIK | s⁻¹ | 0.000415 |

Now consider a different binder.
Given item H4H12163P (antibody, human IgG4, V domains shown) VH: EVQLVESGGDLVQPGGSLRLSCAASGFTFSSYAMNWVRQGPGKGLEWVSAISGRGDSTYYADSVKGRLTISRDNSKNTLYLQMNSLRAEDTAVYYCVKEGEQLVYWYFDLWGRGTLVTVSS VL: DIQMTQSPSSLSASVGDRVTITCRASQTISNFLHWYQQKPGKAPKLLIYAASSLQSGVPSRFSGSGSGTDFTLTISSLQPEDFSTYFCQQSYTTPLTFGGGTKVEIK , the value recorded as its koff is 0.000665
